System: DB
ASSAY NAME: cells
Assay type: functional, cell-based, Homo sapiens
MEASUREMENT CONTEXT: Homo sapiens, DB
Description: SANGER: Inhibition of human DB cell growth in a cell viability assay.
REPORTED ENDPOINT: IC50 (nM)

Cc1cc([N+](=O)[O-])ccc1NS(=O)(=O)c1cc(Cl)ccc1Cl : 8170
CC(C)CCN1c2nc(Nc3cc(F)c(O)c(F)c3)ncc2N(C)C(=O)C1C (stereo not given) : 2550
COc1cccc2c1C(=O)c1c(O)c3c(c(O)c1C2=O)C[C@@](O)(C(=O)CO)C[C@@H]3O[C@H]1C[C@H](N)[C@H](O)[C@H](C)O1 : 162

----------
This listing pairs molecules with measured pIC50.
Test system: OCI-AML2;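 also: growth inhibition of OCI-AML2 cells, read out with a cell viability assay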
ASSAY NAME: cells
Type: functional, cell-based, Homo sapiens
MEASUREMENT CONTEXT: Homo sapiens, OCI-AML2
Description: SANGER: Inhibition of human OCI-AML2 cell growth in a cell viability assay.
pIC50: −log10 of the molar value.
REPORTED ENDPOINT: pIC50

N#Cc1c(O)c2c(-c3ccc(-c4ccccc4O)cc3)csc2[nH]c1=O : 7.24
COc1cc2c(Nc3ccc(NC(=O)c4ccccc4)cc3)ncnc2cc1OCCCN1CCOCC1 : 5.43
N[C@@H](CSC(c1ccccc1)(c1ccccc1)c1ccccc1)C(=O)O [S-TRITYL-L-CYSTEINE] : 5.38
COc1cc(N2CCN(C)CC2)ccc1Nc1ncc2c(n1)N(C)c1ccccc1C(=O)N2C : 5.44
COc1cc(-c2nn([C@H]3CC[C@H](N4CCN(C(C)=O)CC4)CC3)c3ncnc(N)c23)ccc1NC(=O)c1cc2ccccc2n1C : 5.29

----------
Test system: A673;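 also: growth inhibition of human A673 cells, read out through a cell viability assay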
ASSAY NAME: cells
Format: functional, cell-based, Homo sapiens
MEASUREMENT CONTEXT: Homo sapiens, A673
Description: SANGER: Inhibition of human A673 cell growth in a cell viability assay.
REPORTED ENDPOINT: IC50

CO[C@H]1C[C@@H]2CC[C@@H](C)[C@@](O)(O2)C(=O)C(=O)N2CCCC[C@H]2C(=O)O[C@H]([C@H](C)C[C@@H]2CC[C@@H](OC(=O)C(C)(CO)CO)[C@H](OC)C2)CC(=O)[C@H](C)/C=C(\C)[C@@H](O)[C@@H](OC)C(=O)[C@H](C)C[C@H](C)/C=C/C=C/C=C/1C [TEMSIROLIMUS] : 161 nM
Oc1ccc2ccccc2c1SSc1c(O)ccc2ccccc12 : > 32000 nM
COc1cc2c(Nc3ccc(NC(=O)c4ccccc4)cc3)ncnc2cc1OCCCN1CCOCC1 : > 4000 nM
Cc1cc([N+](=O)[O-])ccc1NS(=O)(=O)c1cc(Cl)ccc1Cl : 3000 nM
O=C(O)c1ccc(-c2c[nH]c3ncc(-c4ccccc4)cc23)cc1C1CCCC1 [GSK-650394] : > 16000 nM
Nc1ccn([C@@H]2O[C@H](CO)[C@@H](O)C2(F)F)c(=O)n1 [GEMCITABINE] : 34.2 nM
N#Cc1c(O)c2c(-c3ccc(-c4ccccc4O)cc3)csc2[nH]c1=O : > 1020 nM
Cn1cnc2c(F)c(Nc3ccc(Br)cc3Cl)c(C(=O)NOCCO)cc21 [SELUMETINIB] : > 4000 nM

----------
Test system: C8166;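 also: growth inhibition of human C8166 cells measured by a cell viability assay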
ASSAY NAME: cells
Type: functional, cell-based, Homo sapiens
MEASUREMENT CONTEXT: Homo sapiens, C8166
Description: SANGER: Inhibition of human C8166 cell growth in a cell viability assay.
pIC50: −log10 of the molar value. Structures can show the parent of a compound that is named as a salt.
REPORTED ENDPOINT: pIC50

COc1cc2ncn(-c3cc(OCc4ccccc4S(C)(=O)=O)c(C#N)s3)c2cc1OC [GSK-319347A] : < 5.30
Nc1cccc2c1CN(C1CCC(=O)NC1=O)C2=O (stereo not drawn) [LENALIDOMIDE] : < 5.30
OCCCNc1cc(-c2ccnc(Nc3cccc(Cl)c3)n2)ccn1 : < 6.59
COC1=CC(c2cc3ccccc3[nH]2)=N/C1=C\c1[nH]c(C)cc1C [OBATOCLAX MESYLATE] : 6.32
COc1cc(N2CCN(C)CC2)ccc1Nc1ncc2c(n1)N(C)c1ccccc1C(=O)N2C : < 5.10
COc1cc2c(Nc3ccc(NC(=O)c4ccccc4)cc3)ncnc2cc1OCCCN1CCOCC1 : < 5.40
CC(=O)O[C@H]1C(=O)[C@@]2(C)[C@H]([C@H](OC(=O)c3ccccc3)[C@]3(O)C[C@H](OC(=O)[C@H](O)[C@@H](NC(=O)c4ccccc4)c4ccccc4)C(C)=C1C3(C)C)[C@]1(OC(C)=O)CO[C@@H]1C[C@@H]2O : < 6.99
CCN(CC)CCNC(=O)c1c(C)[nH]c(/C=C2\C(=O)Nc3ccc(F)cc32)c1C : < 5.10

----------
Tested on: TK-10;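 also: growth inhibition of TK-10 cells, read out in a cell viability assay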
ASSAY NAME: cells
Format: functional, cell-based, Homo sapiens
MEASUREMENT CONTEXT: Homo sapiens, TK-10
Description: SANGER: Inhibition of human TK10 cell growth in a cell viability assay.
Counter-ions that a name gives are not always drawn.
REPORTED ENDPOINT: IC50

CCN(CC)CCNC(=O)c1c(C)[nH]c(/C=C2\C(=O)Nc3ccc(F)cc32)c1C [SUNITINIB] : > 8 µM
Cc1ccc(-c2c(C(=O)CCl)n(CCCO)c3ncnc(N)c23)cc1 : 1.95 µM
COc1cccc2c1C(=O)c1c(O)c3c(c(O)c1C2=O)C[C@@](O)(C(=O)CO)C[C@@H]3O[C@H]1C[C@H](N)[C@H](O)[C@H](C)O1 [DOXORUBICIN] : 0.115 µM
Oc1ccc2ccccc2c1SSc1c(O)ccc2ccccc12 : > 32 µM
COC1=CC(c2cc3ccccc3[nH]2)=N/C1=C\c1[nH]c(C)cc1C [OBATOCLAX MESYLATE] : 0.177 µM
O=C(O)c1ccc(-c2c[nH]c3ncc(-c4ccccc4)cc23)cc1C1CCCC1 [GSK-650394] : > 16 µM

----------
System: OCUB-M
ASSAY NAME: cells
Assay type: functional, cell-based, Homo sapiens
MEASUREMENT CONTEXT: Homo sapiens, OCUB-M
Description: SANGER: Inhibition of human OCUB-M cell growth in a cell viability assay.
Structures can show the parent of a compound that is named as a salt.
REPORTED ENDPOINT: IC50 (nM)

COc1cccc2c1C(=O)c1c(O)c3c(c(O)c1C2=O)C[C@@](O)(C(=O)CO)C[C@@H]3O[C@H]1C[C@H](N)[C@H](O)[C@H](C)O1 : 15.2
COc1cc2c(Nc3ccc(NC(=O)c4ccccc4)cc3)ncnc2cc1OCCCN1CCOCC1 : 2250
COC1=CC(c2cc3ccccc3[nH]2)=N/C1=C\c1[nH]c(C)cc1C [OBATOCLAX MESYLATE] : 225
OCCCNc1cc(-c2ccnc(Nc3cccc(Cl)c3)n2)ccn1 : 52.5
N[C@@H](CSC(c1ccccc1)(c1ccccc1)c1ccccc1)C(=O)O : 817
COc1cc(-c2nn([C@H]3CC[C@H](N4CCN(C(C)=O)CC4)CC3)c3ncnc(N)c23)ccc1NC(=O)c1cc2ccccc2n1C : 5030

----------
This listing pairs compounds with measured pIC50.
Test system: IMR-5
ASSAY NAME: cells
Format: functional, cell-based, Homo sapiens
MEASUREMENT CONTEXT: Homo sapiens, IMR-5
Description: SANGER: Inhibition of human IMR-5 cell growth in a cell viability assay.
pIC50: −log10 of the molar value.
REPORTED ENDPOINT: pIC50

OCCCNc1cc(-c2ccnc(Nc3cccc(Cl)c3)n2)ccn1 : 6.91
COc1cc2ncn(-c3cc(OCc4ccccc4C(F)(F)F)c(C(N)=O)s3)c2cc1OC [GW843682X] : 7.45
N[C@@H](CSC(c1ccccc1)(c1ccccc1)c1ccccc1)C(=O)O : 5.90

----------
Test system: HCC38;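 also: cell viability assay on the human HCC38 cell line, with IC50 marking the concentration that inhibits cell growth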
ASSAY NAME: cells
Format: functional, cell-based, Homo sapiens
MEASUREMENT CONTEXT: Homo sapiens, HCC38
Description: SANGER: Inhibition of human HCC38 cell growth in a cell viability assay.
This listing pairs molecules with measured IC50.
REPORTED ENDPOINT: IC50

COc1cc2c(Nc3ccc(NC(=O)c4ccccc4)cc3)ncnc2cc1OCCCN1CCOCC1 : > 4000 nM
Nc1cccc2c1CN(C1CCC(=O)NC1=O)C2=O (stereo not given) [LENALIDOMIDE] : > 5000 nM
CCC/C=C/C=C/C(=O)O[C@H]1/C(=C/C(=O)OC)C[C@H]2C[C@H]([C@@H](C)O)OC(=O)C[C@H](O)C[C@@H]3C[C@H](OC(C)=O)C(C)(C)[C@](O)(C[C@@H]4C/C(=C/C(=O)OC)C[C@H](/C=C/C(C)(C)[C@]1(O)O2)O4)O3 [BRYOSTATIN 1] : > 8 nM
Nc1ccn([C@@H]2O[C@H](CO)[C@@H](O)C2(F)F)c(=O)n1 [GEMCITABINE] : 21.9 nM
Cc1cn(-c2cc(NC(=O)c3ccc(C)c(Nc4nccc(-c5cccnc5)n4)c3)cc(C(F)(F)F)c2)cn1 [NILOTINIB] : > 2000 nM

----------
Test system: NCI-H378
ASSAY NAME: SANGER: Inhibition of human NCI-H378 cell growth in a cell viability assay.
Assay type: functional, cell-based
REPORTED ENDPOINT: IC50

COc1cc2ncn(-c3cc(OCc4ccccc4S(C)(=O)=O)c(C#N)s3)c2cc1OC [GSK-319347A] : > 5 µM
